Molecular target: interaction between ICAM-1 and LFA-1 (Homo sapiens, UniProt P05107+P20701)
Construct: endogenous in cells; TNF-alpha stimulated HUVEC (Clonetics) for ICAM-1
Sequence (P20701 26-1170): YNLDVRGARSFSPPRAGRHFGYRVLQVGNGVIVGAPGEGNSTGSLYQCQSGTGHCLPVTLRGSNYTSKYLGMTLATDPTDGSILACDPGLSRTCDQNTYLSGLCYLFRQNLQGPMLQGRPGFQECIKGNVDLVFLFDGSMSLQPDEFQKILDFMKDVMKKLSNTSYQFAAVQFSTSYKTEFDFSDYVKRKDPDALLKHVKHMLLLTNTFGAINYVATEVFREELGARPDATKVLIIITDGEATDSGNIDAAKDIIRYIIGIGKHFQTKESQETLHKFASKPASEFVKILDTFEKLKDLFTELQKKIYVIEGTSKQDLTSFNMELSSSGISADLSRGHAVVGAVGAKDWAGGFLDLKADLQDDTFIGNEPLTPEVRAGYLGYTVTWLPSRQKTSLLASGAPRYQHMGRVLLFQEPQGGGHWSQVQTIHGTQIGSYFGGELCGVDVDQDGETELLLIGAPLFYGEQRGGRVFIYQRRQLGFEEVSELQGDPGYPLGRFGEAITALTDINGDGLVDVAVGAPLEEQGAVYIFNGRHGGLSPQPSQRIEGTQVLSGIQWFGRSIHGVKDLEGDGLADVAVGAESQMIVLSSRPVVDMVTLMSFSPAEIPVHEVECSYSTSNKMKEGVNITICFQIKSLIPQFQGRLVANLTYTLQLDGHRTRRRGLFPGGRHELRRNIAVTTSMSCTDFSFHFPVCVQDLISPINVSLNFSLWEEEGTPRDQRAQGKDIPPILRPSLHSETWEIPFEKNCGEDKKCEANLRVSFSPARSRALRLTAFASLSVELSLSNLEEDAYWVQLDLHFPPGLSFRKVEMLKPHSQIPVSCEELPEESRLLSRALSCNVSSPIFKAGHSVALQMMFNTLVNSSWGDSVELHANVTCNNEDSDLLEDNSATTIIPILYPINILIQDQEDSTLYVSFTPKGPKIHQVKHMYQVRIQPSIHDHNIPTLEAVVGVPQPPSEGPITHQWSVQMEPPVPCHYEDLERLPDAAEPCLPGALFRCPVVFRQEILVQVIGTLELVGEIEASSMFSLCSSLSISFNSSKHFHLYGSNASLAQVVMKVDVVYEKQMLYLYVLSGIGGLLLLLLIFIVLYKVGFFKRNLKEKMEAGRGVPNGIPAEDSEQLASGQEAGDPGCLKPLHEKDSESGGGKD
Sequence (P05107 23-769): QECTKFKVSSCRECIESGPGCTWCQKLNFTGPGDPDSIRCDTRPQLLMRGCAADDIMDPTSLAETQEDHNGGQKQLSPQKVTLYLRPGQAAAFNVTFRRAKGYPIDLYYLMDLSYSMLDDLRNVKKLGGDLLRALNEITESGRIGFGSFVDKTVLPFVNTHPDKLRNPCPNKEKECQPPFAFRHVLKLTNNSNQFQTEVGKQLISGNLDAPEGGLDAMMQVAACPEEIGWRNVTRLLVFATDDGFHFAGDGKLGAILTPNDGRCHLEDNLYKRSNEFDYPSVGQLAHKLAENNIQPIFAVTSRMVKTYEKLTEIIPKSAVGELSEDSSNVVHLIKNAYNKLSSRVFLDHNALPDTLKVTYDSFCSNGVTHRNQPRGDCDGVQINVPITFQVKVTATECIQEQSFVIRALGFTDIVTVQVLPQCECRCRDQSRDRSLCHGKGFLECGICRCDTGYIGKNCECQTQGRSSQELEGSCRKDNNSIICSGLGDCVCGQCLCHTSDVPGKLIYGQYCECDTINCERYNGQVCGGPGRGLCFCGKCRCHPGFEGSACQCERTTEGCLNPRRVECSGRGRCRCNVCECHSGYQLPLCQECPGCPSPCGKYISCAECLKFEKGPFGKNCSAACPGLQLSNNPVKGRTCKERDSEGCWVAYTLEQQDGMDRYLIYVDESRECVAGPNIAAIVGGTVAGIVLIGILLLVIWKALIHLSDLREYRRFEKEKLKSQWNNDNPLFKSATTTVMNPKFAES
Assay: Adhesion of JY cells to TNF-α stimulated human endothelial cells (JY-EC)
Details: JY cells on TNF-α stimulated human endothelial cells, 30 minutes at 37° C.; read-out: JY-EC IC50 (concentration at which adhesion is inhibited to 50% of control level)
Quantity kind: log10(IC50) (log10 of the value in µM)
Please note: log10 values; quantity IC50; unit µM.

Output measured log10(IC50) for this item: CC(=O)Oc1cccc2cc(S(=O)(=O)NC34CC5CC(CC(C5)C3)C4)ccc12 [Example 15]
1.75

Output measured log10(IC50) for this item: O=S(=O)(c1cc(OCc2cccnc2)c2ccccc2c1)N1CC2CC3CC(C2)CC1C3 [Example 55]
0.32

Output measured log10(IC50) for this item: O=S(=O)(c1cc(OCc2cccnc2)c2ccccc2c1)N1CC2CCC(CC2)C1 [Example 54]
0.64

Output measured log10(IC50) for this item: O=S(=O)(c1ccc2c(Cl)cccc2c1)N1CC2CC1CO2 (stereo not drawn) [Example 21]
1.93

Output measured log10(IC50) for this item: Nc1cccc2cc(S(=O)(=O)N3CC4CCC(CC4)C3)ccc12 [Example 35]
1.13

Output measured log10(IC50) for this item: O=S(=O)(c1ccc2c(Cl)cccc2c1)N1CC2CCC(C2)C1 [Example 17]
1.18

Output measured log10(IC50) for this item: O=S(=O)(c1ccc2c(Cl)cccc2c1)N1CC2CC3CC(C2)CC1C3 [Example 18]
-0.60

Output measured log10(IC50) for this item: O=C(O)C12CC3CC(CC(NS(=O)(=O)c4ccc5c(Cl)cccc5c4)(C3)C1)C2 [Example 24]
2.13

Output measured log10(IC50) for this item: O=S(=O)(NC12CC3CC(CC(C3)C1)C2)c1ccc2c(Cl)cccc2c1 [Example 3]
0.48

Output measured log10(IC50) for this item: O=S(=O)(NC12CC3CC(CC(C3)C1)C2)c1ccc2ncccc2c1 [Example 30]
1.36

Output measured log10(IC50) for this item: O=S(=O)(c1ccc2ncccc2c1)N1CC2CC3CC(C2)CC1C3 [Example 31]
0.70

Output measured log10(IC50) for this item: O=S(=O)(c1ccc2c(Cl)cccc2c1)N1CC2CCC(CC2)C1 [Example 5]
-0.30

Output measured log10(IC50) for this item: COc1ccc(S(=O)(=O)N2CC3CCC(CC3)C2)c2ccccc12 [Example 44]
0.20

Output measured log10(IC50) for this item: O=S(=O)(c1ccc2ncccc2c1)N1CC2CCC(CC2)C1 [Example 29]
0.90

Output measured log10(IC50) for this item: O=S(=O)(c1ccc2c(Cl)cccc2c1)N1CC2CC1CS2 (stereo not drawn) [Example 20]
0.78
